These measurements were taken from patent US20090298765A1.

Measured pIC50, listed per entry for reference.
target: T1, human OT7T175 (metastin receptor) (human, UniProt Q969F8 1-398)
T1 construct: expressed on CHO cells; also called hOT7T175; hOT7T175-expressed CHO cells
T1 sequence (Q969F8 whole entry L364H): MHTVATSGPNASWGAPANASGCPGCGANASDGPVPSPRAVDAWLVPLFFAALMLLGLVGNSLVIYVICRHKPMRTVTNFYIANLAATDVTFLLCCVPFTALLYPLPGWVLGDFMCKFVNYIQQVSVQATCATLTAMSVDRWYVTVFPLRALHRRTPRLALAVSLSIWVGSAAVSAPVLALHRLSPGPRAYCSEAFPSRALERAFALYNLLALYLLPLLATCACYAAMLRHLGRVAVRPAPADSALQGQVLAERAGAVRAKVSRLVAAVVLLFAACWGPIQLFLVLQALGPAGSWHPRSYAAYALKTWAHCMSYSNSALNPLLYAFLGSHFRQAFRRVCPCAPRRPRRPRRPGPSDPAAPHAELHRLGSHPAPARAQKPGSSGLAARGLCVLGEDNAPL
assay: competition with Cy-5 metastin (40-54) on hOT7T175-CHO cells, FMAT
pIC50: −log10 of the molar value. Non-standard residues stand in square brackets, D forms with d. No end group written: not given here. Arg(Me) = CNC(=N)NCCC[C@H](N)C(=O)O; 4Pal = N[C@@H](Cc1ccncc1)C(=O)O; d3Pal = N[C@H](Cc1cccnc1)C(=O)O; Cha = N[C@@H](CC1CCCCC1)C(=O)O; azaGly = NNC(=O)O

{"binder": "Y[dN][4Pal]NSF[azaGly]L[Arg(Me)]F-NH2 (also called Compound No. 304) [[D-Asn2,Pya(4)3,AzaGly7,Arg(Me)9]MS10]", "pIC50": 8.30}
{"binder": "[d3Pal][dY][Cha]NSF[azaGly]L[Arg(Me)]F-NH2 (N-terminus assumed; SMILES CNC(=N)NCCC[C@H](NC(=O)[C@H](CC(C)C)NC(=O)NNC(=O)[C@H](Cc1ccccc1)NC(=O)[C@H](CO)NC(=O)[C@H](CC(N)=O)NC(=O)[C@H](CC1CCCCC1)NC(=O)[C@@H](Cc1ccc(O)cc1)NC(=O)[C@H](N)Cc1cccnc1)C(=O)N[C@@H](Cc1ccccc1)C(N)=O, also called Compound No. 291) [[D-Pya(3)1,D-Tyr2,Cha3,AzaGly7,Arg(Me)9]MS10]", "pIC50": 9.39}
